Target: T1, PUF4 RNA-binding domain (Saccharomyces cerevisiae, UniProt P25339 537-888)
T1 sequence: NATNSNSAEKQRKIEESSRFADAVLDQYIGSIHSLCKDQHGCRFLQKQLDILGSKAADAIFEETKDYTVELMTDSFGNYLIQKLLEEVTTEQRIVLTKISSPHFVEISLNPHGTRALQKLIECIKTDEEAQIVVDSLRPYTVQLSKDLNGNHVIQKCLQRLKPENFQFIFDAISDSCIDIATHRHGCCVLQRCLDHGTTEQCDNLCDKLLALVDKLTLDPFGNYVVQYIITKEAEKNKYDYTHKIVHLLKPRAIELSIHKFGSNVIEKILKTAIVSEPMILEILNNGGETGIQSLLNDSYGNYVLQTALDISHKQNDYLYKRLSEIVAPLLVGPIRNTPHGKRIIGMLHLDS
Experiment: Mg; RNA-MaP; 20 mM Na-HEPES pH 7.4, 30 mM KOAc, 0.75 mM MgCl2, 0.1% Tween-20, 5% glycerol, 0.1 mg/mL BSA, 2 mM DTT; 25 C; 0.0125-409.6 nM protein
Settings: tags: N-His6-TEV cleaved; C-SNAP kept, Cy3B-labelled; label: tethered on chip by stalled RNA polymerase
# maps each entry to its Kd

binder: Ie_S2_P5E.1_K5.1_C5.1_H5.1_[+3CCTCT]_A5.1_F5.1_T5.1 (ssRNA) RNA: UUUGAUUAAUAUGAUAUCGUUCUUUCUUGUCCUCUAUUAUUAUUCUUUCUCGAUAUCAUAUUAAUCUUU
unitsLabel: nM
readoutQualifier: =
Kd: 35.3
--
binder: UCUCUUUGUAUAUUUCUCUAUCUCUU (ssRNA) [Ie_S1_P4E.1_K4.1_C4.1_H4.1_A4.1_F4.1_[+8TCTCT]_T4.1]
unitsLabel: nM
readoutQualifier: =
Kd: 6.66
--
binder: Ib_S4_P4E.1_K4.1_C4.1_H4.1_[G2C]_A4.1_[T7G]_F4.1_T4.1 (ssRNA) RNA: UUUGACAACUGAUCGUUCUUUCUUCUAUAGUAUUCUUUCUCGAUCAGUUGUCUUU
unitsLabel: nM
readoutQualifier: >
Kd: 2300
--
binder: Ic_S2_P4E.1_K4.1_C4.1_H4.1_A4.1_F4.1_[T8G]_[A9C]_T4.1 (ssRNA) RNA: UUUGAUUAAUAUGAUAUCGUUCUUUCUUGUAUAUGCUUCUUUCUCGAUAUCAUAUUAAUCUUU
unitsLabel: nM
readoutQualifier: =
Kd: 15.4
--
binder: Id_ii_S2_P5E.2_K5.1_C5.2_[C-2T]_[T-1C]_H5.1_A5.1_F5.1_T5.2_[T11A]_[A12C] (ssRNA) RNA: UUUGAUUAAUAUGAUAUCGUUCUUUCUUCUGUAUUAUUAACUUCUUUCUCGAUAUCAUAUUAAUCUUU
unitsLabel: nM
readoutQualifier: =
Kd: 4.08

Hello, the source for this data is paper PMC9352680, in case you need it.
